# System: mouse uterus
# assay-explanation: Antiuterotrophic test on infantile mouse (anti-estrogen activity)
# Type: in vivo
# Parameters: unit not given here
# assay-setup: infantile mouse, dose 125 ug

smiles	Antiuterotrophic Test Rel. uterus wgt
CNCCCCCCn1c(-c2ccc(O)cc2)c(C)c2cc(O)ccc21	33.8
Cc1c(-c2ccc(O)cc2)n(CCCCCCN2CCOCC2)c2ccc(O)cc12	18.0
Cc1c(-c2ccc(O)cc2)n(CCCCCCN2CCCC2)c2ccc(O)cc12	8.9
Cc1c(-c2ccc(O)cc2)n(CCCCN2CCCC2)c2ccc(O)cc12	25.5
Cc1c(-c2ccc(O)cc2)n(CCCCCCN)c2ccc(O)cc12	16.2

----------
# target-or-test-system: estrogen receptor (Bos taurus, UniProt P49884)
# Construct: estrogen receptor from calf uterus; from tissue; host or cells: calf uterus
# Sequence (P49884 1-596): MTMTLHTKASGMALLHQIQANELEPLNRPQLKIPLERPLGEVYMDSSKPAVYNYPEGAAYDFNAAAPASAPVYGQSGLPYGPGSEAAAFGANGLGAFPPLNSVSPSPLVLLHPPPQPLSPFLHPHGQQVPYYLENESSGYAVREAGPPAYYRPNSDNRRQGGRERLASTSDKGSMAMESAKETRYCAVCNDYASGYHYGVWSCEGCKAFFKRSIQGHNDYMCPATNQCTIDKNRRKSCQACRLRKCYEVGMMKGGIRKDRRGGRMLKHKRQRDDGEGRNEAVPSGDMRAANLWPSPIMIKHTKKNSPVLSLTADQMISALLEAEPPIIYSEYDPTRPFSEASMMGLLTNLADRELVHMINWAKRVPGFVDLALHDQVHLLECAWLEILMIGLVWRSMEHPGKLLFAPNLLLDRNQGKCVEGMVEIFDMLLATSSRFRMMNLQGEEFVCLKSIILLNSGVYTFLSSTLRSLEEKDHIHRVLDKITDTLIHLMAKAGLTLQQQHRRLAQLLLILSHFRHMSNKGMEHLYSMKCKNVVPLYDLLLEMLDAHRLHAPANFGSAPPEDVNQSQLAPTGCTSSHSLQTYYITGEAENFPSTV
# assay-explanation: relative binding affinity (RBA) for the estrogen receptor from calf uterus, displacement of 3H-17β estradiol
# assay-setup: in comparison with estradiol
observation-type: affinity for the estrogen receptor (in words)

smiles	readout-value
Cc1c(-c2ccc(O)cc2)n(CCCCCCN2CCCCC2)c2ccc(O)cc12	greatest affinity
CNCCCCCCn1c(-c2ccc(O)cc2)c(C)c2cc(O)ccc21	greatest affinity
Cc1c(-c2ccc(O)cc2)n(CCCCCCN)c2ccc(O)cc12	greatest affinity

----------
Entries and their measured Uterotrophic Test Action (rel. uterus wgt) follow.
# Test system: mouse uterus
# assay-explanation: Uterotrophic test on infantile mouse (estrogen activity)
# Type: in vivo
# Set-up: unit not given here
# assay-setup: dose 5 ug/animal
observation-type: Uterotrophic Test Action (rel. uterus wgt)

smiles	readout-value
Cc1c(-c2ccc(O)cc2)n(CCCCCC(=O)N2CCOCC2)c2ccc(O)cc12	22.0
Cc1c(-c2ccc(O)cc2)n(CCCCCC(=O)N2CCCC2)c2ccc(O)cc12	18.2
CCN(CC)CCCCCCn1c(-c2ccc(O)cc2)c(C)c2cc(O)ccc21	24.8
Cc1c(-c2ccc(O)cc2)n(CCCCCC(=O)NCc2ccccc2)c2ccc(O)cc12	16.5
CCN(CC)C(=O)CCCCCn1c(-c2ccc(O)cc2)c(C)c2cc(O)ccc21	18.4
Cc1c(-c2ccc(O)cc2)n(CCCCCCNCc2ccccc2)c2ccc(O)cc12	17.8
Cc1c(-c2ccc(O)cc2)n(CCCCCC(=O)N2CCCCC2)c2ccc(O)cc12	17.7

----------
# System: mouse uterus
# assay-explanation: Uterotrophic test on infantile mouse (estrogen activity)
# Format: in vivo
# Parameters: unit not given here
# assay-setup: dose 5 ug
observation-type: Uterotrophic Test Rel. uterus wgt

smiles	target-or-test-system	readout-value
CNCCCCCCn1c(-c2ccc(O)cc2)c(C)c2cc(O)ccc21	mouse uterus	22.8
Cc1c(-c2ccc(O)cc2)n(CCCCN2CCCC2)c2ccc(O)cc12	mouse uterus	8.0
Cc1c(-c2ccc(O)cc2)n(CCCCCCN)c2ccc(O)cc12	mouse uterus	12.0
Cc1c(-c2ccc(O)cc2)n(CCCCCCN2CCCC2)c2ccc(O)cc12	mouse uterus	9.0
Cc1c(-c2ccc(O)cc2)n(CCCCCCN2CCOCC2)c2ccc(O)cc12	mouse uterus	19.5
